- Test system: L. donovani promastigotes
- measurement notes: In vitro antipromastigote activity (trypan blue count, 48 h)
- Type: cell-based, Leishmania donovani MHOM/IN/80/DD8
- measurement parameters: Leishmania donovani, mean ± SD
experimental readout: IC50 (µg/mL)

CCCCNC(=O)c1ccc(Cn2c(CCCC)nc3c(N)nc4ccccc4c32)cc1 [compound 3] : 5.8
CCOCc1nc2c(N)nc3ccccc3c2n1CC(C)(C)O [Resiquimod, reference compound] : 3.46
CCCCc1nc2c(N)nc3ccccc3c2n1Cc1ccc(Cl)cc1 [compound 2] : 3.57

I = CCCCc1nc2c(N)nc3ccccc3c2n1Cc1cccc(CN)c1 [compound 9]
II = CCCCCCCCCCCCCCCCOP(=O)([O-])OCC[N+](C)(C)C [Miltefosine, miltefosine, reference compound]
Asked: Record comparison, field IC50: mark the lower of I and II . Write down the label of the entry you select.
Given back: II

----------
- System: L. donovani promastigotes
- measurement notes: In vitro antipromastigote activity (trypan blue count, 48 h)
- Type: cell-based, Leishmania donovani MHOM/IN/80/DD8
- measurement parameters: Leishmania donovani, mean ± SD
experimental readout: IC50 (µg/mL)

Would you please look over these solved cases?
CCCCn1cc2c(n1)c(N)nc1ccccc12 : 4.63
CCCCc1nc2c(N)nc3ccccc3c2n1Cc1cccc(CNC(=O)OC(C)(C)C)c1 : 2.21
CCCCc1nc2c(N)nc3ccccc3c2n1Cc1ccc(CN)cc1 : 2.33
CCCCc1nc2c(N)nc3ccccc3c2n1Cc1ccc(CNC(=O)OC(C)(C)C)cc1 : 3.82
CCCCc1nc2c(N)nc3ccccc3c2n1Cc1ccc(C(N)=O)cc1 : 5.1

1 = CCCCc1nc2c(N)nc3ccccc3c2n1Cc1ccc(CO)cc1
2 = CCCCc1nc2c(N)nc3ccccc3c2n1Cc1ccc(O)c(O)c1
3 = CCCCc1nc2c(N)nc3ccccc3c2n1CC(C)C
Asked: # ascending order, key=IC50 # list labels per requested ordering
Given back: 2, 3, 1
(2: 2.28 µg/mL, 3: 3.4 µg/mL, 1: 6.5 µg/mL)

----------
- measurement notes: Cytotoxicity on HeLa cells (MTT, 48 h)
- Type: cell-based, human
- measurement parameters: human, HeLa cells, Fig 4 heat map, mean CC50, unit inferred; read-out: CC50, heat map, Hela Cells
- Method: HeLa cells (human cervical epithelial cell line) were grown in RPMI-1640 (HiMedia) with 10% FBS and cultured at 37°C (5% CO2). The cells were evaluated daily using an inverted microscope for any contamination and subcultured after reaching confluency ([21]). The cytotoxicity studies were performed using an immune cell line (RAW 264.7 macrophage) and non-immune epithelial cell line (HeLa) by 3-(4,5-dimethylthiazol-2-yl)-2,5-diphenyltetrazolium bromide (MTT) assay. […]
Some molecules, each annotated with its measured CC50 at 48 h.
Numeric answer only, unit µg/mL assumed.

Would you please look over these solved cases?
CCCCn1cc2c(n1)c(N)nc1ccccc12 : 4.88
CCOCc1nc2c(N)nc3ccccc3c2n1CC(C)(C)O [Resiquimod, reference compound] : 11.5
CCCCc1nc2c(N)nc3ccccc3c2n1Cc1cccc(CNC(=O)OC(C)(C)C)c1 : 8.8

Asked: Entry "CCCCc1nc2c(N)nc3ccccc3c2n1Cc1ccc(CN)cc1" has what CC50 at 48 h?
Given back: 21.4
